# Tested on: Escherichia coli TOP10
# experiment: shrunken log2 fold change of peptide-encoding DNA abundance (4.5 h post-induction vs induction); higher = less antimicrobial activity (less host growth inhibition)
# reportedConditions: time post-induction: 4.5 h; library: site-saturation at positions 5, 18, 19, 20
Each entry falls in a class defined on shrunken log2 fold change; the bands are group 1: < -0.01; group 2: ≥ -0.01 and < 0.2; group 3: ≥ 0.2

These recorded examples may help you get a feel for the data.
sequenceCode | assignedLabel
RRIRGRPPRLPRPRPRPNELPRP | group 3
RRIRARPPRLPRPRPRPNMWPRP | group 2
RRIRVRPPRLPRPRPRPFLVPRP | group 1
RRIRWRPPRLPRPRPRPKFQPRP | group 2
RRIRNRPPRLPRPRPRPFAKPRP | group 3
RRIRDRPPRLPRPRPRPAYYPRP | group 1

State the band of "RRIRWRPPRLPRPRPRPYSIPRP" group 1

Place this sequence in its band: "RRIRCRPPRLPRPRPRPMDQPRP" group 3

Where would "RRIRCRPPRLPRPRPRPHLKPRP" land among the classes by reported shrunken log2 fold change? group 1

Please report the category associated with "RRIRLRPPRLPRPRPRPMCAPRP" , nothing else. group 2

State the class of the sequence shown: "RRIRDRPPRLPRPRPRPAMNPRP" group 2

GET /class?item= "RRIRTRPPRLPRPRPRPAGYPRP" group 2

Into which category would you place "RRIRMRPPRLPRPRPRPHLWPRP" ? group 3

Kindly identify the class of "RRIRFRPPRLPRPRPRPHGLPRP" . group 2

Hello team, could you let me know which band the following sequence falls into: "RRIRVRPPRLPRPRPRPCNCPRP" group 1

* * *

I'd appreciate it if you could supply shrunken log2 fold change values for the items below.
# System: Escherichia coli TOP10
# experiment: shrunken log2 fold change of peptide-encoding DNA abundance (4.5 h post-induction vs induction); higher = less antimicrobial activity (less host growth inhibition)
# reportedConditions: time post-induction: 4.5 h; library: site-saturation at positions 5, 18, 19, 20
Give bare numbers.

# annotated cases, reported shrunken log2 fold change shown
sequenceCode | assayValue
RRIRLRPPRLPRPRPRPSMCPRP | -0.196
RRIRHRPPRLPRPRPRPGFIPRP | 0.043
RRIRFRPPRLPRPRPRPDENPRP | -0.0759
RRIRIRPPRLPRPRPRPVQFPRP | -0.303
RRIRMRPPRLPRPRPRPGLNPRP | 0.223
RRIRPRPPRLPRPRPRPTILPRP | -0.104
RRIRQRPPRLPRPRPRPASRPRP | -0.124
RRIRKRPPRLPRPRPRPHRRPRP | 3.99
RRIRNRPPRLPRPRPRPNDEPRP | -0.227
RRIRRRPPRLPRPRPRPFKRPRP | -2.89e-05

Value sought for every listed sequence: shrunken log2 fold change.
1. RRIRNRPPRLPRPRPRPNFMPRP
2. RRIRHRPPRLPRPRPRPECMPRP
3. RRIRTRPPRLPRPRPRPVESPRP
4. RRIRPRPPRLPRPRPRPDLMPRP
5. RRIRCRPPRLPRPRPRPGRPPRP

1. -0.269
2. -0.0379
3. 0.141
4. 0.303
5. 0.106

* * *

# Test system: Escherichia coli TOP10;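 also: peptides expressed intracellularly from a pBAD plasmid library in pooled LB shake-flask culture, induced with 0.3% L-arabinose, DNA abundance read by NGS, three biological replicates, DESeq2 with apeglm shrinkage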
# experiment: shrunken log2 fold change of peptide-encoding DNA abundance (4.5 h post-induction vs induction); higher = less antimicrobial activity (less host growth inhibition)
# reportedConditions: time post-induction: 4.5 h; library: site-saturation at positions 5, 18, 19, 20
readoutType: shrunken log2 fold change
Answers are plain numbers.

For every record below, what is its shrunken log2 fold change?
1. RRIRRRPPRLPRPRPRPTCKPRP
2. RRIRSRPPRLPRPRPRPMPNPRP
3. RRIRTRPPRLPRPRPRPERKPRP
4. RRIRLRPPRLPRPRPRPYYSPRP

1. 0.0874
2. -0.0112
3. 0.0268
4. -0.309

Working through the 5 sequences below one at a time, give shrunken log2 fold change for each.
1. RRIRQRPPRLPRPRPRPEEPPRP
2. RRIRKRPPRLPRPRPRPHAHPRP
3. RRIRFRPPRLPRPRPRPSHRPRP
4. RRIRMRPPRLPRPRPRPNGTPRP
5. RRIRDRPPRLPRPRPRPLHPPRP

0.0685
0.428
-0.214
0.0915
0.286
